measurement notes: qHTS for differential inhibitors of proliferation of Plasmodium falciparum line Dd2 (AID 1882); also: nearly all actives have a fitted effect of over 65% in size
assay setup: Plasmodium falciparum Dd2 proliferation inhibition; series mostly up to 28.7 µM
Records with an inconclusive call do not appear. Active and inactive are the calls of the source. Calls follow the shape of the dose curve; as a rule, active = well fitted inhibition curve with a large enough effect; inconclusive = small, poorly fitted or top-dose-only effect; inactive = flat fitted curve, though single readings scatter.
Lab note: assign the record to one of 1.0 = active, 0.0 = inactive

Field: example entries. Status: answers known.
[ask] Call for entry Nc1nc(N)c2nc(CNc3ccc(C(=O)NC(CCC(=O)O)C(=O)O)cc3)cnc2n1 (configuration not stated) :
[reply] 0.0

[ask] How did this test come out for CC(C)NCC(O)c1ccc(NS(C)(=O)=O)cc1 (configuration not stated) ?
[reply] 0.0

[ask] Just curious, what result did CCN(CC)CC#CCOC(=O)C(O)(c1ccccc1)C1CCCCC1 (configuration not stated) get here?
[reply] 1.0

---
[ask] Outcome? O=C(O)C1CCCN(CCC=C(c2ccccc2)c2ccccc2)C1 (configuration not stated)
[reply] 0.0

[ask] So what was the verdict on "NC(=O)c1cccc(N)c1" in this test?
[reply] 0.0

[ask] Would you mind telling me which call this test gave CCN1CCCC1CNC(=O)c1cc(S(N)(=O)=O)ccc1OC (configuration not stated) ?
[reply] 0.0

[ask] Hi, sorry to bother you, what did the test record for CCCCS(=N)(=O)CCC(N)C(=O)O (configuration not stated) ?
[reply] 0.0

* * *

measurement notes: qHTS of pediatric cancer cell lines to identify multiple opportunities for drug repurposing: Primary screen for SK-N-MC cells (AID 1347093); also: potency is read from the fitted curve at half-maximal effect
assay setup: SK-N-MC viability, CellTiter-Glo luminescence, 48 h; series mostly up to 46 µM
Protocol: Drug repurposing or repositioning has been offered as a strategy for drug development in oncology programs. […] [1] Shen, M et al. Quantitative high-throughput phenotypic screening of pediatric cancer cell lines identifies multiple opportunities for drug repurposing. […] Cells were assayed in growth media at a density of 500-1,000 cells/well. […] After a 15 min incubation at room temperature, samples were analyzed for luminescence intensity using a ViewLux High-throughput CCD imager equipped with clear filters.
Records with an inconclusive call do not appear. Activity calls are given as the source filed them. Calls come from the whole dose curve; as a rule, active = well fitted cell-killing curve with a large enough effect; inconclusive = small, poorly fitted or top-dose-only effect; inactive = no such curve, though single readings can be large or run the other way.
readout kind: Potency

Here are 9 compounds together with their reported answers.
[ask] Would you mind telling me what Potency value was observed for "CO[C@@H]1[C@@H](OC(N)=O)[C@@H](O)[C@H](Oc2ccc3c(O)c(NC(=O)c4ccc(O)c(CC=C(C)C)c4)c(=O)oc3c2C)OC1(C)C" ?
[reply] inactive

[ask] Param item = C1CCC(C(CC2CCCCN2)C2CCCCC2)CC1 (stereo not given) ; retrieve measured Potency.
[reply] 11.9 µM (active)

[ask] // query Potency value for entry "CCCCc1oc2ccc(NS(C)(=O)=O)cc2c1C(=O)c1ccc(OCCCN(CCCC)CCCC)cc1"
[reply] 21.1 µM (active)

[ask] Form field: reported Potency of "CNC(=O)c1cc(Oc2ccc(NC(=O)Nc3ccc(Cl)c(C(F)(F)F)c3)cc2)ccn1"
[reply] 3.32 µM (active)

[ask] Could you share which Potency value was measured for "CCCOc1ccc(C(=O)OCCN(CC)CC)cc1N" ?
[reply] inactive

[ask] // returns reported Potency for input "Cc1nnc(C(=O)NC(C)(C)c2nc(C(=O)NCc3ccc(F)cc3)c(O)c(=O)n2C)o1"
[reply] inactive

[ask] Given the compound CC(C)NCC(O)c1ccc(NS(C)(=O)=O)cc1 (stereo not given) , what is its reported Potency?
[reply] 10.5 µM (active)

[ask] What measured Potency goes with "OC(Cn1cncn1)(Cn1cncn1)c1ccc(F)cc1F" ?
[reply] inactive

[ask] Give the measured Potency of "CCCCCCNC(=O)n1cc(F)c(=O)[nH]c1=O" .
[reply] 16.6 µM (active)

Please find the next compound below.
[ask] Report Potency for "CCOC(=O)c1ccc(OC(=O)CCCCCN=C(N)N)cc1" please.
[reply] inactive

Where do these numbers come from? They come from PubChem BioAssay (NCATS).
